Test system: K4 kissing-loop RNA reporter;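 further: bound reporter read as fluorescence of individual clusters on recovered sequencing chips by microscopy, with normalized cluster intensities fitted with a binding model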
Assay: apparent KD of K4 kissing-loop reporter; higher = weaker reporter binding
Conditions: Eterna round: R107; input ligand: theophylline 20 uM
For each entry below, report its apparent KD of K4 kissing-loop reporter value.
State the result as a value with its unit after it.

Please report the measured apparent KD of K4 kissing-loop reporter for UGUACCGAGUCAGGAUAUGGCGUCGAAAGACGAAACCAGUGAUGUUGGAAUAUCGACGAAAGUCGUCCAGAAGGGACUUGGUACU [FmnBS 17 #SwitchBubble #StaticStem #DoubleMagnetSystem]
264 nM

Indicate the recorded apparent KD of K4 kissing-loop reporter value for this sequence: UGUGUUGUUGUGAUGUUUGGUGUUGCAGGGCAGGAUAUCGUAGAGGCGAGAAGGGCUUUUGUGCGGUAUGAGUGAUGUUUGUAGG [rrcgsmullin]
369 nM

Look up apparent KD of K4 kissing-loop reporter of CAACCGUAACACGAUACCAGCCUAGAAGCCAGUGAUGUUGGCCUUUUUUCGGAAAUGAAAGGCCCUUGGCAGCGUGGAUAAAAUG [Lelabiised] and report it.
379 nM

Given AGUGAUGUAGUGUGUUGUUUGUGAAGUGAUCGAGGACCGGUACGGCCGCCACUCGAGUGAUGAGUGAGUGAUGUUUGUUUAGUGG [#18 K4 Tryptophan A Same State] , respond with its apparent KD of K4 kissing-loop reporter.
412 nM

Given CUCGUGGGUUUGAGAGGGCUUGUGGGAAGUGAGGAUAUUUAGGGAGAAAGAAGGCACUAUAGAAUAUAGUGAUGUUAUGUAAGGG [SSFMNA.O] , respond with its apparent KD of K4 kissing-loop reporter.
180 nM

Given UUAUAUAAUUUGUCUUUUUUAACAUUAAGUCAGGAUAUCGUAUAUUCGAGAAGGGACACAUGCUAGUGAUGUUAGCUAUUUCUUU [JR_ExcFMNA_Sub016] , respond with its apparent KD of K4 kissing-loop reporter.
43 nM

----------
Tested on: MS2 coat protein
Experiment: apparent KD of MS2 coat protein; designed switch direction (-1 OFF switch, 1 ON switch): -1; higher = weaker reporter binding
Conditions: Eterna round: R95; input ligand: microRNA oligo, concentration not stated
measurement_kind: apparent KD of MS2 coat protein
Please provide the amount together with its unit, number first.

Tell me its apparent KD of MS2 coat protein given AGUACAUACACGAAAGUGUAUGUACAAUAAGCUUGUGGAACAUGAGGAUCACCCAUGUCCUCAUAAGCUCGUCUUAU [Mat - Sensor v3 - Turn-off var 2 - D30] (puzzle: Sensor v3, turn-off variant 2) as the entry.
71.4 nM

Dear colleague, please send me the reported apparent KD of MS2 coat protein for AAUAACAGAGGAUAUACUGUUUUAUGUGUUUGUUAUUUUAAACAUGAGGAUCACCCAUGUAGAAGGCUGAGUAA [JMF 30] (puzzle: Exclusion 2) when you can.
25 nM

// Input: CUUUUGUGAGGAUAUUAGUAGUAAAUAAAUAUAAUUACUACUGAGAAGGCACAUGAGGAUCACCCAUGUUCCUC [salish99_ex4_r3_058] (puzzle: Exclusion 4) . Output its apparent KD of MS2 coat protein only.
35.5 nM

Specify reported apparent KD of MS2 coat protein for the sequence shown: ACGUGAUAUCUGUCGGUGGACAUGAGGAUCACCCAUGUAAGCUUUCUGCUCGUCUUAUAACCCGGUGACAGACCUUC [Diteerquus] (puzzle: Sensor v3, turn-off variant 1)
310 nM

For GAAUAGGCAGGAUAUACAUGAGGAUCACCCAUGUGCUUGCGAUCGGCAAGCGAACAACGUAGAAGGGCCUUAAC [ChP 13.04.2015 #13] (puzzle: Exclusion 3) , write its apparent KD of MS2 coat protein.
15.8 nM

Name the recorded apparent KD of MS2 coat protein of the item CCGGAAGUACAGGAUAUCGUAACGGAAACGUUACGAGAAGGGUAUACAUGAGGAUCACCCAUGUGUCCUACCGG [Mat - Exclusion 6 - Eli Mod - D93] (puzzle: Exclusion 6) in your answer.
22.6 nM

Kindly indicate its recorded apparent KD of MS2 coat protein. Item: GGAGCGAUUCUCUUAGCUGACAUGAGGAUCACCCAUGUAUGCAAGCUCUUAUUUUGCUCGUCUUACCGGGAAUUGCU [Uslainar] (puzzle: Sensor v3, turn-off variant 1)
18.5 nM

Note down apparent KD of MS2 coat protein recorded for CUGAGCAGACGGAGAUCCAACAUGAGGAUCACCCAUGUCUCAAAAGCUUUUUGCUCAUCUUAUCCUCCUCUGUUCUC [Edcesobi] (puzzle: Sensor v3, turn-off variant 1)
336 nM

Query apparent KD of MS2 coat protein for UUUAAUUUUUUUUUUUUACAAGCUUUUUGCUCGUCUUAUACAUGAGGAUCACCCAUGUGGAUGGAGGGUAAAUUAUC [JMF 85] (puzzle: Sensor v3, turn-off variant 2)
25.6 nM

Tell me apparent KD of MS2 coat protein reported for GAGAAUUUAUAGGAUAUCGUAUGGAUAAUUUAACGAGAAGGAUGAACAUGAGGAUCACCCAUGUGGUAUCAUGG [JL-ex6-3.14] (puzzle: Exclusion 6)
280 nM
